quantityName: melting point

1. COc1cc2c(c3c1OC(C)(C)C3)C(c1ccccc1-c1ccncc1)=NC(C)(C)C2 = 187 to 189 °C
2. CC(=O)OC1c2ccccc2-c2[nH]c(=O)c(=O)[nH]c21 (centres undefined) = > 300 °C
3. COCc1cc(-c2ncc3[nH]c4cccc(OCc5ccccc5)c4c3c2COC)no1 = 133 to 135 °C
4. CCOC(=O)C(C#N)=Cc1c(OC)nc2c(C)cccn12 = 127 to 129 °C
5. CNC(=O)ON=C1OCCOC1(C)C = 144 to 146 °C
6. NC1=NC(c2ccc(OC(F)F)cc2)(c2cccc(-c3cccnc3F)c2)C2=NCCCN12 (centres undefined) = 104 to 114 °C
7. COC(=O)C(CCC#N)(CCC#N)C(=O)OC = 143 °C
8. CCOC(=O)c1cccc(C(=O)c2cccnc2-c2ccc(S(C)(=O)=O)cc2)c1 = 125 to 132 °C
9. CCOC(=O)c1cnc2c(I)cc(COC(C)=O)cc2c1O = 119 to 123 °C
10. CC(=O)OCC1CCCn2c(cc3ccccc32)C1 (centres undefined) = 65 °C
11. O=C1Nc2ccccc2C1CCCCN1CCN(c2ccc(Cl)c(Cl)c2)CC1 (centres undefined) = 112 to 114 °C
12. COC1C=C(C)C(=O)CC(C)(C)C1OC(=O)c1ccc(N)cc1N (centres undefined) = 178 to 179 °C
13. Nc1nc(-c2ccc(OCC(=O)NCC3CCCCC3)cc2)cs1 = 145 to 147 °C
14. CCOCc1nc2c(N)nc3c(c2n1CC1(O)CCCC1)CCCC3 = 171 to 173 °C
